- assayedTarget: Gonadotropin-releasing hormone receptor (Homo sapiens)
- Sequence (whole entry): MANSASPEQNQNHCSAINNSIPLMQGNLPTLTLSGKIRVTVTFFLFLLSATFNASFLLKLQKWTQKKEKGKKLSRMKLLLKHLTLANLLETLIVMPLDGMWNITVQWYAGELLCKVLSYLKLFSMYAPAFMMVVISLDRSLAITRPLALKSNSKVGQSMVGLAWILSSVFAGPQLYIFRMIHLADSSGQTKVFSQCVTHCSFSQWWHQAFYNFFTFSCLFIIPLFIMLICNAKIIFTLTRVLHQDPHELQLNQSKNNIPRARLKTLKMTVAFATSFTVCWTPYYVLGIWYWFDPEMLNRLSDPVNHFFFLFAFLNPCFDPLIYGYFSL
- assayName: Displacement of [125I]-(D-Trp6)LHRH from human recombinant GnRH receptor at 10 uM
assayEndpoint: Activity (%)

Before answering, review these 5 worked examples.
smilesEntry | assayEndpoint | measValue
S=c1[nH]c2cccc(OCCN3CCN(c4cccc5[nH]cnc45)CC3)c2[nH]1 | Activity | 5
O=c1[nH]c2cccc(N3CCN(CCOc4cccc5[nH]c(=S)[nH]c45)CC3)c2[nH]1 | Activity | 6
FC(F)(F)c1nc2cccc(OCCN3CCN(c4cccc5[nH]c(=S)[nH]c45)CC3)c2[nH]1 | Activity | 42
O=C(COc1cccc2[nH]c(=S)[nH]c12)N1CCN(c2cccc3[nH]c(C(F)(F)F)nc23)CC1 | Activity | 24
O=c1[nH]c2cccc(N3CCN(CCOc4cccc5nc(C(F)(F)F)[nH]c45)CC3)c2[nH]1 | Activity | 8

a. FC(F)(F)c1nc2c(N3CCN(CCc4cccc5nc(C(F)(F)F)[nH]c45)CC3)cccc2[nH]1
b. CC(C)(C)c1ccc(-c2nc3c(N4CCN(Cc5ccccc5)CC4)cccc3[nH]2)cc1
c. FC(F)(F)c1nc2c(N3CCN(CCc4cccc5[nH]c(=S)[nH]c45)CC3)cccc2[nH]1
d. S=c1[nH]c2cccc(OCCN3CCN(c4cccc5nccnc45)CC3)c2[nH]1
Hi! Can you put these in order of Activity, lowest number first? Form entry: labels listed in requested order. d, b, a, c

---

- assayName: Solubility of compound at pH 7.4
- Format: physicochemical
- testParameters: buffer
assayEndpoint: solubility (µg/mL)
Give just the number in µg/mL; leave the unit off.

Return reported solubility; argument: CC(C)(C)c1ccc(-c2nc3c(N4CCN(Cc5c[nH]c(=O)[nH]c5=O)CC4)cccc3[nH]2)cc1 25

---

- assayedTarget: 5-hydroxytryptamine receptor 1A (Homo sapiens, UniProt P08908)
- Sequence (P08908 whole entry): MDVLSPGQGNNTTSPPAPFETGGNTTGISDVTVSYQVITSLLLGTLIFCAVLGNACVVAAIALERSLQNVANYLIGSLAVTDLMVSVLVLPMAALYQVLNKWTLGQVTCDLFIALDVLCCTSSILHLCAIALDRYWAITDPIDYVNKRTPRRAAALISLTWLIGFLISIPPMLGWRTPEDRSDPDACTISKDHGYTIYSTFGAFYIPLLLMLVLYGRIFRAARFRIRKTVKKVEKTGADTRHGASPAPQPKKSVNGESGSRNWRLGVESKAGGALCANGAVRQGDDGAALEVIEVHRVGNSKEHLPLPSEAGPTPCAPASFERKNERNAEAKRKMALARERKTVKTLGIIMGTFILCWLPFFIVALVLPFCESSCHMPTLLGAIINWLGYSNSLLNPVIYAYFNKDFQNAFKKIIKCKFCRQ
- assayName: Binding affinity to human 5HT1A receptor
- testParameters: read-out: Ki
pKi: −log10 of the molar value.
assayEndpoint: pKi

P. FC(F)(F)c1nc2c(N3CCN(CCOc4cccc5[nH]c(=S)[nH]c45)CC3)cccc2[nH]1
Q. FC(F)(F)c1nc2c(N3CCN(CCOc4cccc5nc(C(F)(F)F)[nH]c45)CC3)cccc2[nH]1
I need your help: which of the pair P , Q has higher pKi? Record your answer as the label of the chosen record. P
(P: 8.55, Q: 7.72)

Data origin, for the record: ChEMBL document CHEMBL1157420
